Target: T1, EsCas13d, nuclease-dead (Eubacterium siraeum, UniProt B0MS50, R295A;H300A;R849A;H854A)
T1 sequence: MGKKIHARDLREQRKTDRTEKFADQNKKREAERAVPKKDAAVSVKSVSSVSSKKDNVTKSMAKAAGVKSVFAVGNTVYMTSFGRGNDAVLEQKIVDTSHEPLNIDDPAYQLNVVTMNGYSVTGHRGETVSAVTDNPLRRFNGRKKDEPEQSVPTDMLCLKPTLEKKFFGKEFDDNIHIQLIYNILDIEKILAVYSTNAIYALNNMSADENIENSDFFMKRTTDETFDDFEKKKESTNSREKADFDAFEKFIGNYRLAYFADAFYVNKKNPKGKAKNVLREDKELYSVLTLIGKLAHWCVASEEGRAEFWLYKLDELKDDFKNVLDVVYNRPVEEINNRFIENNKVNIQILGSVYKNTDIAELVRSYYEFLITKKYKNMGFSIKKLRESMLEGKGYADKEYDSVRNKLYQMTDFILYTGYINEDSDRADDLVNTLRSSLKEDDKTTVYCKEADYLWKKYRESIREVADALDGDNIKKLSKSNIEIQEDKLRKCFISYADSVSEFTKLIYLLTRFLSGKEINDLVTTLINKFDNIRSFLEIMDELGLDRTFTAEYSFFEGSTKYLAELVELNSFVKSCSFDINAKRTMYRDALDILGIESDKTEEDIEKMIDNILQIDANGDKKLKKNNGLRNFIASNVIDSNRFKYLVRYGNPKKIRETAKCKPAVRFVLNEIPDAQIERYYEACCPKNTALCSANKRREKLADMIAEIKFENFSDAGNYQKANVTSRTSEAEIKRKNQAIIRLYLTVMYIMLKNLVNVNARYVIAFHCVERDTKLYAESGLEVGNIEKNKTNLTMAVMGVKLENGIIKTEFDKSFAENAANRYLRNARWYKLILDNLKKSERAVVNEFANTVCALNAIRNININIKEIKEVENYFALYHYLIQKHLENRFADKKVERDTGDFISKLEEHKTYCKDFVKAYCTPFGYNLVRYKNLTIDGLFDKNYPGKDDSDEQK
Assay: crRNA (strand 1, pre-loaded); Mg2+; 40 mM Tris-HCl pH 7.5, 150 mM NaCl, 6 mM MgCl2, 1 mM DTT, 0.1% Tween-20, 0.2 mg/ml BSA; 25 C; 10 min per concentration, then washed
Conditions: tags: His6-TwinStrep-SUMO cleaved; N-terminal SNAP kept (SNAP-Surface 488); label: 3' end held by stalled T7 RNA polymerase
measured property: pKd
Answers are plain numbers, as −log10 of the molar value.

Some solved cases for reference:
| binder | pKd |
| --- | --- |
| target 3 insA 3' of 6,insU 3' of 1 (mixed) RNA 1: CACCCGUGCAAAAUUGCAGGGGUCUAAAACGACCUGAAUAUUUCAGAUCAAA RNA 2: GGGAAUGGAUCCACAUCUACGAAUUCGUUUUUGAUCUGAAAUAUUCAAGGUCUUGCAGAUCGGAAGAGCACACGU | 7.50 |
| target 1 MT 5'PFS GCC 3'PFS AAG (mixed) RNA 1: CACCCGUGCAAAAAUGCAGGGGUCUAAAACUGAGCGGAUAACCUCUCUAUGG RNA 2: GGGAAUGGAUCCACAUCUACGAAUUCGCCCCAUAGAGAGGUUAUCCGCUCAAAGAGAUCGGAAGAGCACACGU | 7.55 |
| target 2 MT 5'PFS AGA 3'PFS AUC (mixed) RNA 1: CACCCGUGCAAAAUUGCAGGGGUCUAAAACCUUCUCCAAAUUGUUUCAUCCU RNA 2: GGGAAUGGAUCCACAUCUACGAAUUCAGAAGGAUGAAACAAUUUGGAGAAGAUCAGAUCGGAAGAGCACACGU | 8.02 |
| target 1 MT 5'PFS CUU 3'PFS CAC (mixed) RNA 1: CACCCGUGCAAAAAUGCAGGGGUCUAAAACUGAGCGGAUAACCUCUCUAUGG RNA 2: GGGAAUGGAUCCACAUCUACGAAUUCCUUCCAUAGAGAGGUUAUCCGCUCACACAGAUCGGAAGAGCACACGU | 7.33 |
| target 1 MT 5'PFS GUA 3'PFS UGA (mixed) RNA 1: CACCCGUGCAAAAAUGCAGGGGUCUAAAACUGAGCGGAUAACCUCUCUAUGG RNA 2: GGGAAUGGAUCCACAUCUACGAAUUCGUACCAUAGAGAGGUUAUCCGCUCAUGAAGAUCGGAAGAGCACACGU | 7.95 |

Each binder below has a reported value. Please supply its pKd.
1. target 1 U19C,C22U (mixed) RNA 1: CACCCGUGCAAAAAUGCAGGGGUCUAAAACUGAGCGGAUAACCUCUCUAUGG RNA 2: GGGAAUGGAUCCACAUCUACGAAUUCGUAUCACAGAGAGGUUAUCCGCUCACCGAGAUCGGAAGAGCACACGU
2. target 1 insG 3' of 11,insA 3' of 2 (mixed) RNA 1: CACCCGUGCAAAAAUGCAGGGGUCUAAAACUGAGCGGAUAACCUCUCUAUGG RNA 2: GGGAAUGGAUCCACAUCUACGAAUUCGUACCAUAGAGAGGUGUAUCCGCUCAACCGAGAUCGGAAGAGCACACGU
3. target 1 insU 3' of 17,insG 3' of 14 (mixed) RNA 1: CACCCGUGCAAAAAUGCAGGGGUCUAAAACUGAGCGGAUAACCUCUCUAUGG RNA 2: GGGAAUGGAUCCACAUCUACGAAUUCGUACCAUAGUAGAGGGUUAUCCGCUCACCGAGAUCGGAAGAGCACACGU
4. target 3 insU 3' of 14,insC 3' of 3 (mixed) RNA 1: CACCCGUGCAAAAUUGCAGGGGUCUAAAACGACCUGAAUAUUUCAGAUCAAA RNA 2: GGGAAUGGAUCCACAUCUACGAAUUCGUUUUUGAUCUGUAAAUAUUCAGGCUCUGCAGAUCGGAAGAGCACACGU

7.35
7.31
7.64
7.15

Each binder below has a reported value. Please supply its pKd.
1. target 1 G17A,C21U (mixed) RNA 1: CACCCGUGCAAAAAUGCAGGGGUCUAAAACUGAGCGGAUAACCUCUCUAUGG RNA 2: GGGAAUGGAUCCACAUCUACGAAUUCGUACUAUAAAGAGGUUAUCCGCUCACCGAGAUCGGAAGAGCACACGU
2. target 1 C2A,G17C (mixed) RNA 1: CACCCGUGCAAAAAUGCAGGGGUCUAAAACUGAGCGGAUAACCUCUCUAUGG RNA 2: GGGAAUGGAUCCACAUCUACGAAUUCGUACCAUACAGAGGUUAUCCGCUAACCGAGAUCGGAAGAGCACACGU

1: 8.09; 2: 7.24
